target: hSERT (human serotonin transporter) (Homo sapiens, UniProt P31645, M370L); assay: cell-based
Sequence (P31645 whole entry M370L): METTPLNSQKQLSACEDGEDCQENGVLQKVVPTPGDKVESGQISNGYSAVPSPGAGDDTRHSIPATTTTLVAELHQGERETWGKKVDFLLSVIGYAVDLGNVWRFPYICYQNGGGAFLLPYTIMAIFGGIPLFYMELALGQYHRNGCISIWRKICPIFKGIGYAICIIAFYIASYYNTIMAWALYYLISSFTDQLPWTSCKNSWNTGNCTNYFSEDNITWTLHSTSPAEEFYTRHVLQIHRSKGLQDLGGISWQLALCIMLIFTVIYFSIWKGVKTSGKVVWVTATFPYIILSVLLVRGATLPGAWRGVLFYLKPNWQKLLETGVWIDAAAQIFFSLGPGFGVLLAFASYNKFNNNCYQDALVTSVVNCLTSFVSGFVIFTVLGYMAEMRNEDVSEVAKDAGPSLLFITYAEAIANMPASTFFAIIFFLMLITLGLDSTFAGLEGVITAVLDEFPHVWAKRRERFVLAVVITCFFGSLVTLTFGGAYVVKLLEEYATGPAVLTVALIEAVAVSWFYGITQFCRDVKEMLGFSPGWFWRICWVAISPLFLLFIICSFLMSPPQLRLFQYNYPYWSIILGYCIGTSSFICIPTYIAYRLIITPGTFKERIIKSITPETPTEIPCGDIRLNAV
pKi: −log10 of the molar value.

{"columns": ["molecule", "pKi"],
 "data": [
  ["COC(=O)[C@H]1[C@@H](c2ccc(I)cc2)C[C@@H]2CC[C@H]1N2C [RTI-55]", 7.80]
]}
